experimentalProtocol: Photocleavage study: irradiation at 360 nm, composition by HPLC
Format: physicochemical
testContext: 1 mM, 5% water in acetonitril, 360 nm; irradiation time 270 min; share of the labelled species
Measured Molar composition of a solution of 2',7-bisNvoc-PTX after irradiation values are reported for all entries that follow.
Number in %, nothing else.

Give the measured Molar composition of a solution of 2',7-bisNvoc-PTX after irradiation of CC(=O)O[C@H]1C(=O)[C@@]2(C)[C@H]([C@H](OC(=O)c3ccccc3)[C@]3(O)C[C@H](OC(=O)[C@H](O)[C@@H](NC(=O)c4ccccc4)c4ccccc4)C(C)=C1C3(C)C)[C@]1(OC(C)=O)CO[C@@H]1C[C@@H]2O .
1.7

###

We begin with a simple list: items and their reported Molar composition of a solution of 2',7-bisNvoc-PTX after irradiation.
experimentalProtocol: Photocleavage study: irradiation at 360 nm, composition by HPLC
Format: physicochemical
testContext: 1 mM, 5% water in acetonitril, 360 nm; irradiation time 450 min; share of the labelled species
State the result as a value with its unit after it.

// solved cases for Molar composition of a solution of 2',7-bisNvoc-PTX after irradiation follow
compound	valueObserved
COc1cc(COC(=O)O[C@H]2C[C@H]3OC[C@@]3(OC(C)=O)[C@H]3[C@H](OC(=O)c4ccccc4)[C@]4(O)C[C@H](OC(=O)[C@H](OC(=O)OCc5cc(OC)c(OC)cc5[N+](=O)[O-])[C@@H](NC(=O)c5ccccc5)c5ccccc5)C(C)=C([C@@H](OC(C)=O)C(=O)[C@]23C)C4(C)C)c([N+](=O)[O-])cc1OC [2',7-bisNvoc-PTX]	51.1%
CC(=O)O[C@H]1C(=O)[C@@]2(C)[C@H]([C@H](OC(=O)c3ccccc3)[C@]3(O)C[C@H](OC(=O)[C@H](O)[C@@H](NC(=O)c4ccccc4)c4ccccc4)C(C)=C1C3(C)C)[C@]1(OC(C)=O)CO[C@@H]1C[C@@H]2O [PTX, Paclitaxel]	6.0%
COc1cc(COC(=O)O[C@@H](C(=O)O[C@H]2C[C@@]3(O)[C@@H](OC(=O)c4ccccc4)[C@@H]4[C@]5(OC(C)=O)CO[C@@H]5C[C@H](O)[C@@]4(C)C(=O)[C@H](OC(C)=O)C(=C2C)C3(C)C)[C@@H](NC(=O)c2ccccc2)c2ccccc2)c([N+](=O)[O-])cc1OC [2'-Nvoc-PTX]	27.6%

Let us move to another entry and its Molar composition of a solution of 2',7-bisNvoc-PTX after irradiation.
Please look up its Molar composition of a solution of 2',7-bisNvoc-PTX after irradiation: COc1cc(COC(=O)O[C@H]2C[C@H]3OC[C@@]3(OC(C)=O)[C@H]3[C@H](OC(=O)c4ccccc4)[C@]4(O)C[C@H](OC(=O)[C@H](O)[C@@H](NC(=O)c5ccccc5)c5ccccc5)C(C)=C([C@@H](OC(C)=O)C(=O)[C@]23C)C4(C)C)c([N+](=O)[O-])cc1OC [7-Nvoc-PTX]
15.3%

###

# Lookup of reported Molar composition of a solution of 2',7-bisNvoc-PTX after irradiation keyed by entry
experimentalProtocol: Photocleavage study: irradiation at 360 nm, composition by HPLC
Type: physicochemical
testContext: 1 mM, 5% water in acetonitril, 360 nm; irradiation time 270 min; share of the labelled species
Respond with the figure and its unit, in that order.

chemicalSmiles	valueObserved
COc1cc(COC(=O)O[C@H]2C[C@H]3OC[C@@]3(OC(C)=O)[C@H]3[C@H](OC(=O)c4ccccc4)[C@]4(O)C[C@H](OC(=O)[C@H](O)[C@@H](NC(=O)c5ccccc5)c5ccccc5)C(C)=C([C@@H](OC(C)=O)C(=O)[C@]23C)C4(C)C)c([N+](=O)[O-])cc1OC	8.6%

Which value of Molar composition of a solution of 2',7-bisNvoc-PTX after irradiation has been reported for COc1cc(COC(=O)O[C@@H](C(=O)O[C@H]2C[C@@]3(O)[C@@H](OC(=O)c4ccccc4)[C@@H]4[C@]5(OC(C)=O)CO[C@@H]5C[C@H](O)[C@@]4(C)C(=O)[C@H](OC(C)=O)C(=C2C)C3(C)C)[C@@H](NC(=O)c2ccccc2)c2ccccc2)c([N+](=O)[O-])cc1OC in the records?
17.4%

Given COc1cc(COC(=O)O[C@H]2C[C@H]3OC[C@@]3(OC(C)=O)[C@H]3[C@H](OC(=O)c4ccccc4)[C@]4(O)C[C@H](OC(=O)[C@H](OC(=O)OCc5cc(OC)c(OC)cc5[N+](=O)[O-])[C@@H](NC(=O)c5ccccc5)c5ccccc5)C(C)=C([C@@H](OC(C)=O)C(=O)[C@]23C)C4(C)C)c([N+](=O)[O-])cc1OC , state its recorded Molar composition of a solution of 2',7-bisNvoc-PTX after irradiation.
72.3%

Provenance of the data: patent EP2565188A1
